# experiment notes: In vivo pharmacokinetic analysis
# Design: species or system male C57 adult mice
# condition label: male, C57, mouse, 20 mg/kg; intravenous delivery, plasma over 12 hours, no elimination
reported endpoint: half-life

What the record says about `NC1(C(=O)NCCCn2cc(-c3ccc(OC(F)(F)F)cc3)c3cc(CN4CCN(Cc5c(Cl)cccc5Cl)CC4)ccc32)CCNCC1` : half-life is > 12 h

---

# Tested on: Calu-1 (KRAS G12C)
# experiment notes: Cell viability assay (384-well, Alamar blue)
# Assay type: cell-based
# condition label: Homo sapiens, Calu-1, 48 h, Table 8, 384-well, alamar blue
reported endpoint: pEC50
In simple prose, pEC50 is minus the logarithm base ten of a concentration in moles per litre.

[[record]]
structure_string = "NC1(C(=O)NCCCn2cc(-c3cccc(F)c3)c3c(CN4CCN(CCOc5ccc(Cl)cc5)CC4)cccc32)CCNCC1"
numeric_readout = 5.03


// next entry
What the record says about `NC1(C(=O)NCCCn2cc(-c3ccc(OC(F)(F)F)cc3)c3cc(CN4CCN(Cc5c(Cl)cccc5Cl)CC4)ccc32)CCNCC1` : pEC50 is 5.44
